- assay info: PK of compound of Formula (Ia) after single subcutaneous dose of solution formulations in beagle dogs
- Format: in vivo
- stated conditions: male, beagle, dog, plasma, sc, 12 mg/kg, beagle dogs, SC 12 mg/kg, 500 mg/mL solution X (5.00% ethanol, 1.91% poloxamer 188), 3.00 h, animals #1-#3
result type: concentration at 3 h (nM)
Report the figure in nM without appending any unit label.

## Input Reported concentration at 3 h, compound CC(C)(C#Cc1ccc(-c2ccc(Cl)c3c(NS(C)(=O)=O)nn(CC(F)(F)F)c23)c([C@H](Cc2cc(F)cc(F)c2)NC(=O)Cn2nc(C(F)(F)F)c3c2C(F)(F)[C@@H]2C[C@H]32)n1)S(C)(=O)=O [compound of Formula (Ia)] : ____
## Output 19.4

---

- assay info: PK of compound of Formula (Ia) after single subcutaneous dose of solution formulations in Wistar Han rats
- Type: in vivo
- stated conditions: male, Wistar Han, rat, plasma, sc, 50 mg/kg, Wistar Han rats, SC 50 mg/kg, 400 mg/mL solution Z (3.13% poloxamer 188), 2688 h, Mean n = 4
result type: concentration at 2688 h
Please don't drop the unit; write it after the number.

## Input Reported concentration at 2688 h, compound CC(C)(C#Cc1ccc(-c2ccc(Cl)c3c(NS(C)(=O)=O)nn(CC(F)(F)F)c23)c([C@H](Cc2cc(F)cc(F)c2)NC(=O)Cn2nc(C(F)(F)F)c3c2C(F)(F)[C@@H]2C[C@H]32)n1)S(C)(=O)=O : ____
## Output 141 nM

---

- assay info: PK of compound of Formula (Ia) after single subcutaneous dose of solution formulations in beagle dogs
- Assay type: in vivo
- stated conditions: male, beagle, dog, plasma, sc, 12 mg/kg, beagle dogs, SC 12 mg/kg, 400 mg/mL solution AA (6.25% poloxamer 188), 336 h, Mean n = 3
result type: concentration at 336 h (nM)
Report the figure in nM without appending any unit label.

## Input Reported concentration at 336 h, molecule CC(C)(C#Cc1ccc(-c2ccc(Cl)c3c(NS(C)(=O)=O)nn(CC(F)(F)F)c23)c([C@H](Cc2cc(F)cc(F)c2)NC(=O)Cn2nc(C(F)(F)F)c3c2C(F)(F)[C@@H]2C[C@H]32)n1)S(C)(=O)=O : ____
## Output 185

---

- assay info: PK of compound of Formula (Ia) after single subcutaneous dose of solution formulations in Wistar Han rats
- Type: in vivo
- stated conditions: male, Wistar Han, rat, plasma, sc, 50 mg/kg, male Wistar Han rats, single SC 50 mg/kg, 400 mg/mL solution AA (6.25% poloxamer 188), mean ± SD, n = 4; read-out: AUC0-1344 h
result type: AUC(0-t)
Please don't drop the unit; write it after the number.

## Input Reported AUC(0-t), compound CC(C)(C#Cc1ccc(-c2ccc(Cl)c3c(NS(C)(=O)=O)nn(CC(F)(F)F)c23)c([C@H](Cc2cc(F)cc(F)c2)NC(=O)Cn2nc(C(F)(F)F)c3c2C(F)(F)[C@@H]2C[C@H]32)n1)S(C)(=O)=O : ____
## Output 167 µM·h

---

- assay info: PK of compound of Formula (Ia) after single subcutaneous dose of solution formulations in Wistar Han rats
- Assay type: in vivo
- stated conditions: male, Wistar Han, rat, plasma, sc, 50 mg/kg, Wistar Han rats, SC 50 mg/kg, 400 mg/mL solution Z (3.13% poloxamer 188), 168 h, Mean n = 4
result type: concentration at 168 h

## Input Reported concentration at 168 h, molecule CC(C)(C#Cc1ccc(-c2ccc(Cl)c3c(NS(C)(=O)=O)nn(CC(F)(F)F)c23)c([C@H](Cc2cc(F)cc(F)c2)NC(=O)Cn2nc(C(F)(F)F)c3c2C(F)(F)[C@@H]2C[C@H]32)n1)S(C)(=O)=O : ____
## Output 135 nM

---

- assay info: PK of compound of Formula (Ia) after single subcutaneous dose of solution formulations in beagle dogs
- Format: in vivo
- stated conditions: male, beagle, dog, plasma, sc, 12 mg/kg, 1344 h; individual dogs; SC 12 mg/kg; solution T, 400 mg/mL
result type: concentration at 1344 h

## Input Reported concentration at 1344 h, molecule CC(C)(C#Cc1ccc(-c2ccc(Cl)c3c(NS(C)(=O)=O)nn(CC(F)(F)F)c23)c([C@H](Cc2cc(F)cc(F)c2)NC(=O)Cn2nc(C(F)(F)F)c3c2C(F)(F)[C@@H]2C[C@H]32)n1)S(C)(=O)=O [compound of Formula (Ia)] : ____
## Output 42.5 nM

---

- assay info: PK of compound of Formula (Ia) after single subcutaneous dose of solution formulations in beagle dogs
- Type: in vivo
- stated conditions: male, beagle, dog, plasma, sc, 12 mg/kg, beagle dogs, SC 12 mg/kg, 500 mg/mL solution X (5.00% ethanol, 1.91% poloxamer 188), 72.0 h, Mean n = 3
result type: concentration at 72 h (nM)
Report the figure in nM without appending any unit label.

## Input Reported concentration at 72 h, molecule CC(C)(C#Cc1ccc(-c2ccc(Cl)c3c(NS(C)(=O)=O)nn(CC(F)(F)F)c23)c([C@H](Cc2cc(F)cc(F)c2)NC(=O)Cn2nc(C(F)(F)F)c3c2C(F)(F)[C@@H]2C[C@H]32)n1)S(C)(=O)=O [compound of Formula (Ia)] : ____
## Output 36.5

---

- assay info: PK of compound of Formula (Ia) after single subcutaneous dose of solution formulations in beagle dogs
- Assay type: in vivo
- stated conditions: male, beagle, dog, plasma, sc, 12 mg/kg, 2016 h; mean, n = 3 dogs; SC 12 mg/kg; solution T, 400 mg/mL
result type: concentration at 2016 h (nM)
Report the figure in nM without appending any unit label.

## Input Reported concentration at 2016 h, compound CC(C)(C#Cc1ccc(-c2ccc(Cl)c3c(NS(C)(=O)=O)nn(CC(F)(F)F)c23)c([C@H](Cc2cc(F)cc(F)c2)NC(=O)Cn2nc(C(F)(F)F)c3c2C(F)(F)[C@@H]2C[C@H]32)n1)S(C)(=O)=O : ____
## Output 11.8

---

- assay info: PK of compound of Formula (Ia) after single subcutaneous dose of solution formulations in Wistar Han rats
- Type: in vivo
- stated conditions: male, Wistar Han, rat, plasma, sc, 50 mg/kg, Wistar Han rats, SC 50 mg/kg, 400 mg/mL solution AA (6.25% poloxamer 188), 168 h, Mean n = 4
result type: concentration at 168 h (µM)
Report the figure in µM without appending any unit label.

## Input Reported concentration at 168 h, molecule CC(C)(C#Cc1ccc(-c2ccc(Cl)c3c(NS(C)(=O)=O)nn(CC(F)(F)F)c23)c([C@H](Cc2cc(F)cc(F)c2)NC(=O)Cn2nc(C(F)(F)F)c3c2C(F)(F)[C@@H]2C[C@H]32)n1)S(C)(=O)=O : ____
## Output 0.141

---

- assay info: PK of compound of Formula (Ia) after single subcutaneous dose of solution formulations in beagle dogs
- Assay type: in vivo
- stated conditions: male, beagle, dog, plasma, sc, 12 mg/kg, beagle dogs, SC 12 mg/kg, 400 mg/mL solution W (5.00% ethanol, 1.57% poloxamer 188), 3024 h, animals #1-#3
result type: concentration at 3024 h (nM)
Report the figure in nM without appending any unit label.

## Input Reported concentration at 3024 h, compound CC(C)(C#Cc1ccc(-c2ccc(Cl)c3c(NS(C)(=O)=O)nn(CC(F)(F)F)c23)c([C@H](Cc2cc(F)cc(F)c2)NC(=O)Cn2nc(C(F)(F)F)c3c2C(F)(F)[C@@H]2C[C@H]32)n1)S(C)(=O)=O [compound of Formula (Ia)] : ____
## Output 10.5

---

- assay info: PK of compound of Formula (Ia) after single subcutaneous dose of solution formulations in Wistar Han rats
- Format: in vivo
- stated conditions: male, Wistar Han, rat, plasma, sc, 50 mg/kg, Wistar Han rats, SC 50 mg/kg, 400 mg/mL solution W (5.00% ethanol, 1.57% poloxamer 188), 1344 h, Mean n = 3
- Description: Formulations containing the compound of Formula (Ia), or a pharmaceutically acceptable salt thereof, were prepared as solutions and optionally administered subcutaneously or intramuscularly to rats, rabbits, and/or dogs. A solution of about 400 mg/mL of the compound of Formula (Ia) having 19.14 w/w % water, 40.66 w/w % PEG 300, 35.20 w/w % of a sodium salt of a compound of Formula (Ia), and 5.00% ethanol was prepared. […]
result type: concentration at 1344 h (nM)
Report the figure in nM without appending any unit label.

## Input Reported concentration at 1344 h, molecule CC(C)(C#Cc1ccc(-c2ccc(Cl)c3c(NS(C)(=O)=O)nn(CC(F)(F)F)c23)c([C@H](Cc2cc(F)cc(F)c2)NC(=O)Cn2nc(C(F)(F)F)c3c2C(F)(F)[C@@H]2C[C@H]32)n1)S(C)(=O)=O [compound of Formula (Ia)] : ____
## Output 305
